What GI50 was measured for each of the following?
Tested on: SNB-75
Experiment: NCI tumour cell line growth inhibition, 48 h
Activity calls are given as the source filed them. No stated cut-off is given here; in the data, active = GI50 up to about 1.1 µM and inactive = higher.

Prompt line: Suppose we examine the compound "C=C(O)c1ccccc1C#Cc1ccccc1C(=O)OC" ; what GI50 value has been reported?
Response line: 3.66 µM (inactive)

Prompt line: Suppose we examine the compound CC1(c2nc3cc(Cl)c(Cl)cc3[nH]2)CCC(CO)C(C)(C)O1 (centres undefined) ; what GI50 value has been reported?
Response line: 14.8 µM (inactive)

Prompt line: Suppose we examine the compound COc1ccc2c(c1)C1OCCNC1CC2 (centres undefined) ; what GI50 value has been reported?
Response line: > 100 µM (inactive)

Prompt line: Suppose we examine the compound "N#Cc1ccc(Oc2nc3ccc(C(F)(F)F)cc3nc2-c2ccccc2)cc1" ; what GI50 value has been reported?
Response line: 14.1 µM (inactive)

====

What GI50 was measured for each of the following?
Test system: OVCAR-3
Assay: NCI tumour cell line growth inhibition, 48 h
Active and inactive are the calls of the source. Rule as the data show it: active = GI50 up to about 1.1 µM and inactive = higher. Where a SMILES comes first, the peptide text is derived from it. The star is where a group is joined. Boc = CC(C)(C)OC(=O)*

Prompt line: Suppose we examine the molecule "COC(=O)c1c(O)ccc2c1c1c(n2Cc2cc(OC)cc(OC)c2)C(=O)c2ccccc2C1" ; what GI50 value has been reported?
Response line: 43.2 µM (inactive)

Prompt line: Suppose we examine the molecule "COc1ccc(S(=O)(=O)N/N=C/CN2C(=O)c3ccccc3C2=O)cc1OC" ; what GI50 value has been reported?
Response line: > 100 µM (inactive)

Prompt line: Suppose we examine the molecule CC(NC(=O)C1CCCN1C(=O)CNC(=O)OC(C)(C)C)C(=O)O (stereo not drawn) (Boc-Gly-Pro-Ala-OH; configuration not given here) ; what GI50 value has been reported?
Response line: > 100 µM (inactive)

Prompt line: Suppose we examine the molecule "Cn1cnc2c1c(=O)n(CCNCCO)c(=O)n2C" ; what GI50 value has been reported?
Response line: > 100 µM (inactive)

Prompt line: Suppose we examine the molecule CC(C)c1c(O)ccc2c1CCC1C(C)(C)CCCC21C (stereo not given) ; what GI50 value has been reported?
Response line: 18.6 µM (inactive)

Prompt line: Suppose we examine the molecule "OCCNCNc1nc(NCNCCO)nc(N(CNCCO)CNCCO)n1" ; what GI50 value has been reported?
Response line: 22.6 µM (inactive)

Prompt line: Suppose we examine the molecule "O=C(N/N=C/c1cc(Cl)cc(Cl)c1O)c1ccncc1" ; what GI50 value has been reported?
Response line: 32.2 µM (inactive)

Prompt line: Suppose we examine the molecule COc1cc2c(cc1C1COc3cc4occc4cc3C1=O)OCO2 (stereo not given) ; what GI50 value has been reported?
Response line: > 100 µM (inactive)

Prompt line: Suppose we examine the molecule CCOC(=O)C1C=C2O[C@@H]3OC4(CCCCC4)O[C@@H]3C2[C@H]2C(=O)C=CC(=O)[C@@]12C(=O)OC (stereo not given in full) ; what GI50 value has been reported?
Response line: 7.89 µM (inactive)

Prompt line: Suppose we examine the molecule COc1ccc(/C=C2\CCCC(CN(C)C)C2=O)cc1 (stereo not given) ; what GI50 value has been reported?
Response line: 1.94 µM (inactive)

====

Tested on: SN12C
Experiment: NCI tumour cell line growth inhibition, 48 h
Active and inactive are the calls of the source. Cut-off read from the data, not from the text of the source: active = GI50 up to about 1.1 µM and inactive = higher.
Assign a class; possible classes are active, inactive

Prompt line: How did this test come out for CC(=O)OC1COC(N2C(=O)C(=O)c3c(C)cc(Cl)nc32)C(OC(C)=O)C1OC(C)=O (centres undefined) ?
Response line: inactive

Prompt line: How did this test come out for CNC(=O)/C=C/C1=CN2C(=O)c3ccc(C)c(O)c3NC(OC)C2C1 (centres undefined) ?
Response line: active

Prompt line: How did this test come out for "Cc1cc(C)nc(Nc2nc3cc([N+](=O)[O-])ccc3[nH]2)n1" ?
Response line: inactive

Prompt line: How did this test come out for O=C(O)CNCP(=O)(O)O [GLYPHOSATE] ?
Response line: inactive

Prompt line: How did this test come out for "CCCCCCCCCCCCCC(=S)N/C=C/OC" ?
Response line: inactive

Prompt line: How did this test come out for COc1ccc(Br)c2c1CC(C(=O)O)CC2 (centres undefined) ?
Response line: inactive

Prompt line: How did this test come out for "O=C1/C(=C/c2cccc([N+](=O)[O-])c2)N=C(c2ccccc2)N1c1nc2ccc(Sc3ccccc3)cc2[nH]1" ?
Response line: inactive

Prompt line: How did this test come out for "CN(CC(=O)O)S(=O)(=O)c1ccc(Cl)cc1" ?
Response line: inactive

Prompt line: How did this test come out for CC(C)c1c(O)ccc2c1CCC1C(C)(C)CCCC21C (centres undefined) ?
Response line: inactive
